- target-under-test: Amine oxidase [flavin-containing] B (Homo sapiens)
- Sequence (P27338 whole entry): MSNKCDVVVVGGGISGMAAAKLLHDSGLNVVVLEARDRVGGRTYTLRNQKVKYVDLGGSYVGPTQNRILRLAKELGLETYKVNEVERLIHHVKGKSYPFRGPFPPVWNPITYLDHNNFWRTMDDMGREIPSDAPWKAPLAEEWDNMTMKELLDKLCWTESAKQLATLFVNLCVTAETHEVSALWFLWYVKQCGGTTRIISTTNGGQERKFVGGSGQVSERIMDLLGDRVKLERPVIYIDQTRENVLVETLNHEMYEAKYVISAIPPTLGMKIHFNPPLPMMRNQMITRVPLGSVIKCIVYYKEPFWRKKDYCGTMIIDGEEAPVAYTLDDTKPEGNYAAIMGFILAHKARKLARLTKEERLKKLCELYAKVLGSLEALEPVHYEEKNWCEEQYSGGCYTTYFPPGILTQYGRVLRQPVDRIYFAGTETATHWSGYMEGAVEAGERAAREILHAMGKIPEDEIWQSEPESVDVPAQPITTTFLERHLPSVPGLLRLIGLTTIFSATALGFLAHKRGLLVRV
reported-endpoint: pIC50
One number for each entry, as −log10 of the molar value.

(Q) Recorded pIC50 for Cc1ccc(N/C=C2\C(=O)Oc3ccccc3C2=O)cc1 , please?
(A) 7.37

###

- Tested on: MG-63
- procedure-text: Antiproliferative activity against human MG63 cells after 48 hrs by MTT assay
- Format: functional, cell-based
- stated-conditions: MG-63, 48 h
reported-endpoint: IC50
Hey, just the number and the unit after it is fine.

(Q) Form field: reported IC50 of O=c1cc(N2CCOCC2)oc2c(-c3ccccc3)cccc12
(A) 55.2 µM

###

- procedure-text: Inhibition of Saccharomyces cerevisiae alpha-glucosidase using PNP-G as substarte
reported-endpoint: pIC50
Answers are plain numbers, as −log10 of the molar value.

>>> print(df.to_string())
                                     smiles  assay_result
0  COc1ccc2c(c1)OC/C(=C\c1ccc(O)c(O)c1)C2=O          4.55

(Q) # input compound: O=c1c(/C=C/c2ccc(O)c(O)c2)coc2ccc(O)cc12 ; wanted: its pIC50
(A) 4.80
